- Experiment Description: chemical genetic growth profiling, strain panel (AID 1159580);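 also: tested at 20 µM; growth read once vehicle control cultures reached saturation at 30 °C; 1 = growth at the plate median or of vehicle wells; lower values mean less growth of the strain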
- Recorded Conditions: S. cerevisiae deletion strains, growth OD, locus YDR162C, strain NBP2
Out of some 5,500 compounds screened, about 2,000 (36%) were called active. Roughly 18% stayed inconclusive and do not appear here. Rule as the data show it: active = normalized growth mostly below about 0.91 (no sharp cut-off); inconclusive = no clear call, values can overlap the other calls; inactive = mostly above about 0.92. Some of the results follow.
Select the matching outcome among t (active), f (inactive)

Take a look at these entries with their results.
| Compound | Class |
| --- | --- |
| CCC(C)c1cnc(CC(C)C)c(=O)n1O (stereo unspecified) | t |
| COc1ccc([C@H]2Oc3cc(OC)cc(OC)c3C[C@H]2O)cc1 | f |
| COc1ccc2c(c1O)OCC1c3cc4c(cc3OC21)OCO4 (stereo unspecified) | f |
| COc1ccc2c(c1)O[C@H]1c3ccc(OC)cc3OC[C@@H]21 | f |
| COc1cc([C@@H]2c3cc4c(c(O)c3C[C@H]3COC(=O)[C@@H]32)OCO4)cc(OC)c1OC | f |

Please turn your attention to the following entry.
Req: Hi, sorry to bother you, what did the test record for CC1C[C@H]2CC(=O)[C@H]3CCCN4CCC[C@H]2[C@]34C1 (stereo partly specified) ?
Resp: f

###

- Experiment Description: chemical genetic growth profiling, strain panel (AID 1159580);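 also: tested at 20 µM; growth read once vehicle control cultures reached saturation at 30 °C; 1 = growth at the plate median or of vehicle wells; lower values mean less growth of the strain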
- Recorded Conditions: S. cerevisiae deletion strains, growth OD, locus YAL040C, strain CLN3, active compounds read low
Hit rate of the full screen: of about 5,500 compounds, about 2,000 (36%) were called active. Roughly 18% stayed inconclusive and do not appear here. This is one part of the list.
// classify: if (normalized growth < 1) T else F

Solved cases (3 shown):
| Compound | Class |
| --- | --- |
| Oc1cc2c(cc1O)CN(C(=S)NCCc1ccc(Cl)cc1)CCC2 | F |
| COC(=O)C1C2CC3c4[nH]c5cc(OC)ccc5c4CCN3CC2CC(OC(=O)c2cc(OC)c(OC)c(OC)c2)C1OC (configuration not stated) | F |
| NC(CO)C(=O)NNCc1ccc(O)c(O)c1O (configuration not stated) | T |

Please look at the following compound next.
Req: Dear reviewer, please state whether O=C(O)Cc1ccc(O)c(O)c1 has normalized growth strictly beneath 1.
Resp: F

###

- Experiment Description: chemical genetic growth profiling, strain panel (AID 1159580);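 also: tested at 20 µM; growth read once vehicle control cultures reached saturation at 30 °C; 1 = growth at the plate median or of vehicle wells; lower values mean less growth of the strain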
- Recorded Conditions: S. cerevisiae strains, growth OD, strain wild type, active compounds read low
The campaign covered roughly 5,500 compounds. About 2,000 (36%) were called active. Inconclusive results (about 18%) are left out. The list shows a part of the results.
Exercise: for every item that follows, state its recorded normalized growth.

| Compound | Value |
| --- | --- |
| COC(=O)C(C)c1ccc(C(=O)c2cccs2)cc1 (stereo unspecified) | 0.983 (inactive) |
| Nc1nc2ncc(=O)[nH]c2c(=O)[nH]1 | 1 (inactive) |
| O=C(O)c1cc2cc(Cc3cccnc3)ccc2o1 | 1 (inactive) |
| Cc1onc(-c2c(Cl)cccc2Cl)c1C(=O)Oc1ccc(Cl)c(Cl)c1 | 1.01 (inactive) |
| CC(C)C(=O)Nc1ccc([N+](=O)[O-])c(C(F)(F)F)c1 | 0.986 (inactive) |

Please look at the items below and tell me normalized growth for each one, in order.
1. CC1(C)NC(=O)N(c2ccc([N+](=O)[O-])c(C(F)(F)F)c2)C1=O
2. CCCNC1CCc2nc(N)sc2C1 (stereo unspecified)
3. C[C@@H]1C(=O)OC2[C@H](O)C34[C@@H]5OC(=O)[C@@]3(O[C@@H]3OC(=O)[C@H](O)[C@@]34[C@H](C(C)(C)C)[C@H]5O)[C@]21O (stereo partly specified)
4. COC(=O)c1c(-c2c(Cl)cccc2Cl)noc1NC(=O)NN1CCCCC1

Resp:
1 (inactive)
1.01 (inactive)
0.983 (inactive)
0.999 (inactive)

Each compound below has a reported value. Please supply its normalized growth.
1. Cc1onc(-c2c(F)cccc2Cl)c1C(=O)Oc1ccccc1
2. CC(=O)N[C@@H](CS)C(=O)O

Resp:
1: 0.935 (inactive); 2: 1.01 (inactive)
